biological target: Beta-adrenergic receptor kinase 1 (Homo sapiens); experiment: GRK2 kinase inhibitors, rhodopsin substrate, late-stage follow-up, orthogonal assay for GRK2 aptamer-displacement inhibitor project, biochemical, set 2 (AID 588482); details: GRK2 rhodopsin phosphorylation, 32P incorporation, SDS-PAGE; at 200 µM; active compounds read high
reported-metric: inhibition (%)

P: O=C(CCS(=O)(=O)c1ccc(Br)s1)Nc1ccccc1Br
Q: CC(CS(=O)(=O)c1ccc2c(c1)NC(=O)CS2)C(=O)NCc1ccccc1Cl (configuration not stated)
R: O=C(CSc1nc2ccccc2c(=O)n1-c1ccccc1)NC(=O)CN1CCCC1=O
// rank above by inhibition: first = highest number Use the labels to give the ranking in the order requested.
Q, P, R

====

target: Beta-adrenergic receptor kinase 1 (Homo sapiens) (UniProt P25098); experiment: GRK2 kinase inhibitors, rhodopsin substrate, late-stage follow-up, orthogonal assay for GRK2 aptamer-displacement inhibitor project, biochemical, set 2 (AID 588482); conditions: GRK2 rhodopsin phosphorylation, 32P incorporation, SDS-PAGE; at 200 µM; active compounds read high
Sequence (P25098 whole entry, looked up): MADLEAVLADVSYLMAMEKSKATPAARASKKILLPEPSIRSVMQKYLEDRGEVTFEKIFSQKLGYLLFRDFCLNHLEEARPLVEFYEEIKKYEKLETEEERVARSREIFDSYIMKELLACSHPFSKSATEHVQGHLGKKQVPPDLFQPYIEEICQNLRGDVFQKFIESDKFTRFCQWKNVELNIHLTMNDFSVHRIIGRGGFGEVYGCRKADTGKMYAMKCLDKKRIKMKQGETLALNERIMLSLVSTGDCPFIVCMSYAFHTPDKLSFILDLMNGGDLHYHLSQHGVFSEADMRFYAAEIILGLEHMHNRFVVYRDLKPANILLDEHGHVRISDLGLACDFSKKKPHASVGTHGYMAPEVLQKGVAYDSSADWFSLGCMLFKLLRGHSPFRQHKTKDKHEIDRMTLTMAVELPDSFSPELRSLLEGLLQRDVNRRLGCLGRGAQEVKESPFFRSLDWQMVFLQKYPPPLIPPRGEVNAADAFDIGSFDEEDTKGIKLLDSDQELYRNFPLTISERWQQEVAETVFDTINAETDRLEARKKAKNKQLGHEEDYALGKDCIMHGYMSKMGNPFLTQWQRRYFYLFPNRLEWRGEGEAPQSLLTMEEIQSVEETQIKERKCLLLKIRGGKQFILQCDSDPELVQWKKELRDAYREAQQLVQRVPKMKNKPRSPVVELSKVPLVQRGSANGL
reported-metric: inhibition (%)

O=C(CCS(=O)(=O)c1ccc(Br)cc1)Nc1ccc(Br)cc1F 11.4
COC(=O)c1ccc(NC(=O)CCS(=O)(=O)c2ccc(Br)cc2)cc1 -71.8
Cc1ccccc1NC(=O)CCS(=O)(=O)c1ccc(Br)s1 -7.11

I: CCOc1ccc(NC(=O)CCS(=O)(=O)c2ccc(Br)cc2)cc1
II: O=C(CCS(=O)(=O)c1ccc(Br)cc1)NCc1cccs1
Of I versus II , which is the one with smaller reported inhibition? I would appreciate it if you answered with the label of your choice.
I

a: Cc1cccc(CCNC(=O)CCS(=O)(=O)c2ccc(Br)cc2)c1
b: CC(=O)N1CCN(Cc2nc3cc(Cl)ccc3c(=O)[nH]2)CC1
c: COc1ccc(NC(=O)CCS(=O)(=O)c2ccc(Br)s2)cc1
Sort entries by inhibition from minimum to maximum value. Provide your answer as the labels ordered per the instruction.
c, a, b
(c: -90.5%, a: -50.6%, b: -20%)
